- measurement.setup: Surf. Brij 35P 2.5%, lipid 90H 1.0%, co-surf. S LPC ca. 0.01% (as SL 80-3 0.05%), active agent 0.10%
readout.label: Turbidity (FNU)
Give the number; FNU is assumed, so skip it.

## Input Need Turbidity (FNU) of Nc1ccc(C(=O)O)cc1 [PABA] , thanks.
## Output 8.81

## Input What value of measured Turbidity (FNU) is listed for CCCCCCCCCCCCCCCC(=O)OC[C@H](O)[C@H]1OC(=O)C(O)=C1O [Ascorbyl palmitate] ?
## Output 72.4

## Input Recorded Turbidity (FNU) of CCCC(=O)O[C@]1(C(=O)CO)CC[C@H]2[C@@H]3CCC4=CC(=O)CC[C@]4(C)[C@H]3[C@@H](O)C[C@@]21C [Hydrocortisone-17 butyrate] , please.
## Output 55.9

## Input Tell me the measured Turbidity (FNU) of NC[C@@H]1O[C@H](O[C@H]2[C@@H](O)[C@H](O[C@@H]3[C@@H](O)[C@H](N)C[C@H](N)[C@H]3O[C@H]3O[C@H](CN)[C@@H](O)[C@H](O)[C@H]3N)O[C@@H]2CO)[C@H](N)[C@@H](O)[C@@H]1O.O=S(=O)(O)O [Neomycin sulphate] , please.
## Output 19.76

## Input Endpoint output: Turbidity (FNU) of Clc1ccccc1C(c1ccccc1)(c1ccccc1)n1ccnc1 [Clotrimazole] . Value?
## Output 10.4

## Input Turbidity (FNU) for CC(C)CCC[C@@H](C)[C@H]1CC[C@H]2[C@@H]3CC=C4C[C@@H](O)CC[C@]4(C)[C@H]3CC[C@]12C [Cholesterol] ?
## Output 10.91

## Input # get_value(readout='Turbidity (FNU)', item= CC12CCC(CC1=O)C2(C)C (stereo not drawn) [Camphor (S-Black)] )
## Output 29.70

## Input Reported Turbidity (FNU), molecule CCCCCCCCCCCCCCCCCCOC(=O)[C@@]1(C)CC[C@]2(C)CC[C@]3(C)C(=CC(=O)[C@@H]4[C@@]5(C)CC[C@H](O)C(C)(C)[C@@H]5CC[C@]43C)[C@@H]2C1 [Stearyl glycrrhetinate] : ____
## Output 88.9

## Input State the recorded Turbidity (FNU) for this entry: O=C(CCCCc1ccc2c(c1)OCO2)N1CCCCC1 [Cosmoperine]
## Output 6.38

## Input I have this molecule here, COc1ccc(C(=O)CC(=O)c2ccc(C(C)(C)C)cc2)cc1 [Avobenzene] , and I need its recorded Turbidity (FNU).
## Output 52.9

## Input What Turbidity (FNU) value was documented for this molecule, CCCCC(=O)O[C@]1(C(=O)CO)[C@@H](C)C[C@H]2[C@@H]3CCC4=CC(=O)C=C[C@]4(C)[C@@]3(F)[C@@H](O)C[C@@]21C [Betamethasone 17-valerate] ?
## Output 19.24

----------
- measurement.setup: Surf. Brij 35P 2.5%, lipid 90H 1.0%, co-surf. S LPC ca. 0.01% (as SL 80-3 0.05%), active agent 0.10%
What Turbidity (FNU) was measured for each of the following?
The answer should read as a number with its unit following.

## Input Need Turbidity (FNU) of C[C@@H]1[C@H](O)[C@@H](C)/C=C/C=C/CC/C=C/C=C/C=C/C=C/C(O[C@H]2O[C@H](C)[C@@H](O)[C@H](N)[C@@H]2O)CC2O[C@](O)(CC(O)C(O)CCC(O)CC(O)CC(O)CC(=O)O[C@H]1C)CC(O)C2C(=O)O (stereo partly shown) , thanks.
## Output 21.3 FNU

## Input Would you kindly share the measured Turbidity (FNU) for COc1ccc(C(=O)c2ccccc2)c(O)c1 ?
## Output 10.02 FNU

## Input Given the entry CC(C)CCC[C@@H](C)[C@H]1CC[C@H]2C3=CC=C4C[C@@H](O)CC[C@]4(C)[C@H]3CC[C@]12C [7-dehydrocholesterol] , report its measured Turbidity (FNU).
## Output 58.4 FNU

## Input Quick check: Turbidity (FNU) of CC1=CCC(O)(C(C)C)CC1 (stereo not shown) ?
## Output 19.4 FNU
